test system: H1299 lung cancer cells; test: MTT cell viability, H1299; type: cell-based, human; conditions: Homo sapiens, NCI-H1299, 72 h
parameter: IC50

Which IC50 is listed for C#CCN1CCN(CCCOc2ccc3c(ccn3S(=O)(=O)c3ccc(C(=O)NNCCC)cc3)c2)CC1 [FRB56] ?
4.9 µM

Consider now this further compound.
Which IC50 is listed for CCCNNC(=O)c1ccc(S(=O)(=O)n2ccc3cc(OCCCN4CCCCC4)ccc32)cc1 [FRB44] ?
11 µM

* * *

target: recombinant hMAO-A (Homo sapiens, UniProt P21397); experiment: MAO-A inhibition assay; settings: increasing concentrations of inhibitor
Sequence (P21397 whole entry): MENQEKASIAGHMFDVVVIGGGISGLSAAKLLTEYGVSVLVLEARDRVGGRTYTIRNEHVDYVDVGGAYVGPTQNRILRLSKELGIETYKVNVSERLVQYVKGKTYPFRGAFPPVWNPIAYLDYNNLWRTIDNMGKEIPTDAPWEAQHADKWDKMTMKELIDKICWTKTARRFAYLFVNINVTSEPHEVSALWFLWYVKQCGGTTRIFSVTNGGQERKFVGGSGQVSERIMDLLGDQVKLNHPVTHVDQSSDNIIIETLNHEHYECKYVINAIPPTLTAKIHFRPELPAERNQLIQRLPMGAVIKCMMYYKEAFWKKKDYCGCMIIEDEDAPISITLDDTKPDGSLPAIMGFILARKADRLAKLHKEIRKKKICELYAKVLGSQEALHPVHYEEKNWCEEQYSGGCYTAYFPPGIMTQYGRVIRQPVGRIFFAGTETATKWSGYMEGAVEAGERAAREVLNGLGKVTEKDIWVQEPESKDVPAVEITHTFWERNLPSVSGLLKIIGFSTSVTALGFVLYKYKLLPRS
parameter: pIC50
// pIC50: -log10(molar conc.)

Which pIC50 is listed for C#CCN1CCN(CCCOc2ccc3c(ccn3S(=O)(=O)c3ccc(C(=O)NNCCC)cc3)c2)CC1 [FRB56] ?
5.77
